Target: Cytochrome P450 1A2 (Homo sapiens)
Sequence (P05177 1-516): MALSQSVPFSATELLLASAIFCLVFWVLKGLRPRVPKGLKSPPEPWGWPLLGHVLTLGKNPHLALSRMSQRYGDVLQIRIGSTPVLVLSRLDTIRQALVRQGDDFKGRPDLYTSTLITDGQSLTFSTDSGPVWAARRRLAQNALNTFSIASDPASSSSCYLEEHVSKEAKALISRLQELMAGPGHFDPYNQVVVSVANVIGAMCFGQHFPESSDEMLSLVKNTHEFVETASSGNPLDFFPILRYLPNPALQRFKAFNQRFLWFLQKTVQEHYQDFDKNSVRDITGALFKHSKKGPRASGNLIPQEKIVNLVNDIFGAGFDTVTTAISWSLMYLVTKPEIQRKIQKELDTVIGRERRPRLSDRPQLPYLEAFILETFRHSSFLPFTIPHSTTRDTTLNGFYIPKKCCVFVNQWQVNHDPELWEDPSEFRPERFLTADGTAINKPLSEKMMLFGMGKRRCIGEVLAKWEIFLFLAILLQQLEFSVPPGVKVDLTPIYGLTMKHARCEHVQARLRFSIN
pIC50: −log10 of the molar value.
ENDPOINT: pIC50

Input: Value lookup for pIC50; key = N#Cc1cc(CNc2ccccc2C(=O)Nc2cc3ccccc3cn2)ccn1
Output: < 4.52
